B1: ZNF449 (parent)
chain: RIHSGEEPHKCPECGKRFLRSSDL

Variants of: B1
Experiment: protein stability index of a GFP-peptide fusion (GPS, HEK-293T) (PSI 1-6); higher = more stable;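 also: lentivirally expressed fusions sorted by FACS into six bins by GFP to DsRed ratio, PSI derived from sequencing read proportions per bin multiplied by bin number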
Settings: c terminus: a fixed tail appended
For each entry below, report its protein stability index value.
Give bare numbers.

Look over these answered cases.
- VARIANT_LABEL: "E7V"
  protein stability index: 2.96
- VARIANT_LABEL: "S4G"
  protein stability index: 3.06

Give protein stability index for each of the items listed below.
1. F18C
2. R17V
3. P8F
4. S22A

## Result
1. 4.15
2. 3.17
3. 2.44
4. 2.93

These entries and their values trace back to the supplement of paper PMC10567573.
